test system: Pseudomonas aeruginosa; assay: Antibacterial activity against Pseudomonas aeruginosa ATCC 27853 after 24 hrs by broth dilution technique; type: functional; conditions: ATCC 27853, 24 h
MEASURE_NAME: MIC (µg/mL)

molecule=COc1cc(/C=C/C(=O)c2ccccc2)ccc1OCc1nnc(-c2ccc(Cl)cc2)o1 reported_measurement=25
molecule=COc1cc(/C=C/C(=O)c2ccccc2)ccc1OCc1nnc(-c2ccccc2)o1 reported_measurement=25
molecule=COc1ccc(C(=O)/C=C/c2ccc(OCc3nnc(-c4ccc(C)cc4)o3)c(OC)c2)cc1 reported_measurement=12.5
molecule="O=C(O)c1cn(C2CC2)c2cc(N3CCNCC3)c(F)cc2c1=O [CIPROFLOXACIN]" reported_measurement=6
molecule=COc1cc(/C=C/C(=O)c2ccccc2)ccc1OCc1nnc(COc2ccccc2)o1 reported_measurement=12.5

1. COc1cc(/C=C/C(=O)c2ccccc2)ccc1OCc1nnc(-c2ccc(C)cc2)o1
2. COc1ccc(C(=O)/C=C/c2ccc(OCc3nnc(COc4ccccc4)o3)c(OC)c2)cc1
Rank 1 against 2 by their MIC values and give the higher one. Lab log: write the label of the selected item as the result. 2
(2: 25 µg/mL, 1: 12.5 µg/mL)

I. COc1cc(/C=C/C(=O)c2ccc(O)cc2)ccc1OCc1nnc(COc2ccccc2)o1
II. COc1cc(/C=C/C(=O)c2ccc(O)cc2)ccc1OCc1nnc(-c2ccccc2O)o1
III. COc1cc(/C=C/C(=O)c2ccc(O)cc2)ccc1OCc1nnc(-c2ccccc2)o1
Put the items in order so that reported MIC rises from first to last. Kindly provide the labels arranged according to the requested ordering. II, I, III
(II: 6 µg/mL, I: 12.5 µg/mL, III: 25 µg/mL)

###

Overview of reported MFC across a group of compounds:
tested on: Aspergillus niger; test: Antifungal activity against Aspergillus niger after 48 hrs; assay type: functional
Your answer is read as µg/mL, so omit the unit and give the number.

The following compounds have reported results that may help.
compound_structure=COc1cc(/C=C/C(=O)c2ccc(O)cc2)ccc1OCc1nnc(-c2ccccc2)o1 reported_measurement=50
compound_structure=COc1cc(/C=C/C(=O)c2ccc(O)cc2)ccc1OCc1nnc(COc2ccccc2)o1 reported_measurement=12.5
compound_structure=COc1cc(/C=C/C(=O)c2ccc(O)cc2)ccc1OCc1nnc(-c2ccc([N+](=O)[O-])cc2)o1 reported_measurement=100
compound_structure=COc1ccc(C(=O)/C=C/c2ccc(OCc3nnc(-c4ccccc4)o3)c(OC)c2)cc1 reported_measurement=25
compound_structure=COc1cc(/C=C/C(=O)c2ccccc2)ccc1OCc1nnc(-c2ccccc2)o1 reported_measurement=25
compound_structure=COc1ccc(C(=O)/C=C/c2ccc(OCc3nnc(COc4ccccc4)o3)c(OC)c2)cc1 reported_measurement=12.5
compound_structure=C[C@@H](c1ncncc1F)[C@](O)(Cn1cncn1)c1ccc(F)cc1F reported_measurement=12.5
compound_structure=COc1ccc(C(=O)/C=C/c2ccc(OCc3nnc(-c4ccc(Cl)cc4)o3)c(OC)c2)cc1 reported_measurement=50

So what does the record say about MFC for COc1cc(/C=C/C(=O)c2ccccc2)ccc1OCc1nnc(COc2ccccc2)o1 ? 12.5

Requested field: MFC. Item: COc1ccc(C(=O)/C=C/c2ccc(OCc3nnc(-c4ccc(C)cc4)o3)c(OC)c2)cc1 25

###

Recorded measurements of zone of inhibition at 200 µg/mL, one per entry
system: Escherichia coli; assay: Antibacterial activity against Escherichia coli ATCC 25922 at 200 ug/ml after 24 hrs by disc-diffusion method; assay type: functional; conditions: ATCC 25922, 24 h, read-out: IZ
Numeric only. Scale: mm

Sample answers from the record:
compound_structure=COc1cc(/C=C/C(=O)c2ccccc2)ccc1OCc1nnc(-c2ccccc2)o1 measure_name="zone of inhibition at 200 µg/mL" reported_measurement=20
compound_structure=COc1ccc(C(=O)/C=C/c2ccc(OCc3nnc(-c4ccccc4O)o3)c(OC)c2)cc1 measure_name="zone of inhibition at 200 µg/mL" reported_measurement=26
compound_structure=COc1cc(/C=C/C(=O)c2ccc(O)cc2)ccc1OCc1nnc(-c2ccccc2O)o1 measure_name="zone of inhibition at 200 µg/mL" reported_measurement=24
compound_structure=COc1cc(/C=C/C(=O)c2ccc(O)cc2)ccc1OCc1nnc(-c2ccccc2)o1 measure_name="zone of inhibition at 200 µg/mL" reported_measurement=23
compound_structure=COc1ccc(C(=O)/C=C/c2ccc(OCc3nnc(COc4ccccc4)o3)c(OC)c2)cc1 measure_name="zone of inhibition at 200 µg/mL" reported_measurement=22
compound_structure=COc1cc(/C=C/C(=O)c2ccccc2)ccc1OCc1nnc(-c2ccc(Cl)cc2)o1 measure_name="zone of inhibition at 200 µg/mL" reported_measurement=18
compound_structure=COc1cc(/C=C/C(=O)c2ccc(O)cc2)ccc1OCc1nnc(-c2ccc(C)cc2)o1 measure_name="zone of inhibition at 200 µg/mL" reported_measurement=20
compound_structure=COc1ccc(C(=O)/C=C/c2ccc(OCc3nnc(-c4ccc(Cl)cc4)o3)c(OC)c2)cc1 measure_name="zone of inhibition at 200 µg/mL" reported_measurement=19

Missing value: zone of inhibition at 200 µg/mL, Escherichia coli, entry COc1cc(/C=C/C(=O)c2ccccc2)ccc1OCc1nnc(COc2ccccc2)o1 . Fill in? 20

###

system: Pseudomonas aeruginosa; experiment: Antibacterial activity against Pseudomonas aeruginosa ATCC 27853 after 18 to 24 hrs; format: functional
In this section, each of the compounds is paired with its reported MBC.
Please state the figure in µg/mL; there is no need to write the unit.

compound_structure=COc1ccc(C(=O)/C=C/c2ccc(OCc3nnc(-c4ccc(Cl)cc4)o3)c(OC)c2)cc1 reported_measurement=100
compound_structure=COc1cc(/C=C/C(=O)c2ccccc2)ccc1OCc1nnc(-c2ccccc2O)o1 reported_measurement=12.5
compound_structure=COc1ccc(C(=O)/C=C/c2ccc(OCc3nnc(COc4ccccc4)o3)c(OC)c2)cc1 reported_measurement=12.5
compound_structure=COc1cc(/C=C/C(=O)c2ccc(O)cc2)ccc1OCc1nnc(-c2ccccc2O)o1 reported_measurement=12.5
compound_structure=COc1ccc(C(=O)/C=C/c2ccc(OCc3nnc(-c4ccc(C)cc4)o3)c(OC)c2)cc1 reported_measurement=25

Next compound, MBC to be filled in.
Query: MBC; subject: COc1cc(/C=C/C(=O)c2ccccc2)ccc1OCc1nnc(-c2ccc(Cl)cc2)o1 50

###

tested on: Escherichia coli; assay: Antibacterial activity against Escherichia coli ATCC 25922 after 24 hrs by broth dilution technique; type: functional; settings: ATCC 25922, 24 h
MEASURE_NAME: MIC (µg/mL)

Sample answers from the record:
compound_structure=COc1cc(/C=C/C(=O)c2ccccc2)ccc1OCc1nnc(-c2ccc(Cl)cc2)o1 measurement_target="Escherichia coli" reported_measurement=12.5
compound_structure=COc1cc(/C=C/C(=O)c2ccc(O)cc2)ccc1OCc1nnc(-c2ccc(C)cc2)o1 measurement_target="Escherichia coli" reported_measurement=12.5

1. COc1ccc(C(=O)/C=C/c2ccc(OCc3nnc(-c4ccccc4O)o3)c(OC)c2)cc1
2. COc1cc(/C=C/C(=O)c2ccc(O)cc2)ccc1OCc1nnc(-c2ccc(Cl)cc2)o1
3. COc1cc(/C=C/C(=O)c2ccccc2)ccc1OCc1nnc(-c2ccccc2)o1
4. COc1cc(/C=C/C(=O)c2ccc(O)cc2)ccc1OCc1nnc(-c2ccc([N+](=O)[O-])cc2)o1
Rank the 4 compounds: largest MIC first, smallest last. Answer by naming the labels in the order asked. 4, 2, 3, 1
(4: 50 µg/mL, 2: 25 µg/mL, 3: 12.5 µg/mL, 1: 6 µg/mL)

###

Let's look at some compounds and their measured zone of inhibition at 200 µg/mL.
system: Escherichia coli; assay: Antibacterial activity against Escherichia coli ATCC 25922 at 200 ug/ml after 24 hrs by disc-diffusion method; type: functional; conditions: ATCC 25922, 24 h, read-out: IZ
Give the number; mm is assumed, so skip it.

Past entries and their recorded results:
compound_structure=COc1cc(/C=C/C(=O)c2ccc(O)cc2)ccc1OCc1nnc(COc2ccccc2)o1 reported_measurement=22
compound_structure=COc1ccc(C(=O)/C=C/c2ccc(OCc3nnc(-c4ccc(C)cc4)o3)c(OC)c2)cc1 reported_measurement=21
compound_structure=COc1cc(/C=C/C(=O)c2ccc(O)cc2)ccc1OCc1nnc(-c2ccc([N+](=O)[O-])cc2)o1 reported_measurement=17
compound_structure=O=C(O)c1cn(C2CC2)c2cc(N3CCNCC3)c(F)cc2c1=O reported_measurement=27
compound_structure=COc1cc(/C=C/C(=O)c2ccccc2)ccc1OCc1nnc(-c2ccccc2O)o1 reported_measurement=22

Quick check: zone of inhibition at 200 µg/mL of COc1cc(/C=C/C(=O)c2ccccc2)ccc1OCc1nnc(-c2ccc(C)cc2)o1 ? 21

Which measured zone of inhibition at 200 µg/mL value corresponds to COc1cc(/C=C/C(=O)c2ccc(O)cc2)ccc1OCc1nnc(-c2ccc(Cl)cc2)o1 ? 18

Name the recorded zone of inhibition at 200 µg/mL for COc1ccc(C(=O)/C=C/c2ccc(OCc3nnc(-c4ccccc4)o3)c(OC)c2)cc1 . 21
